Give measured IRF reporter for each item. Keep answers brief.
test system: RAW-Dual (murine macrophage reporter line); experiment: IRF reporter (Lucia luciferase) activity fold change vs agonist alone; higher = enhanced IRF activity; settings: modulator concentration 10 µM; agonist: MPLA […]

I am curious: what IRF reporter value has been reported for COc1ccc(-c2noc(-c3ccc(=O)n(Cc4ncc(C)c(OC)c4C)c3)n2)cc1F ? 1.31

I am curious: what IRF reporter value has been reported for CCCCc1c(CCC)c(=N)c2ccccc2n1C.I ? 2.14

I am curious: what IRF reporter value has been reported for Cl.Cl.Clc1ccc(Nc2nnc(Cc3ccncc3)c3ccccc23)cc1 ? 0.926

I am curious: what IRF reporter value has been reported for O=c1c(-c2ccc(O)cc2)coc2cc(O)cc(O)c12 ? 0.842

I am curious: what IRF reporter value has been reported for O=C(CCCN1CC=C(n2c(=O)[nH]c3ccccc32)CC1)c1ccc(F)cc1 ? 1.21

I am curious: what IRF reporter value has been reported for Cc1cc(C(=O)Nc2nnc(-c3ccc(F)cc3)o2)n(C)n1 ? 1.22

I am curious: what IRF reporter value has been reported for COc1cccc(-n2c(SCc3ccc(F)cc3)nc3c([nH]c4ccccc43)c2=O)c1 ? 0.902

I am curious: what IRF reporter value has been reported for CC(C)c1ccccc1NS(=O)(=O)c1ccccc1 ? 1.53

I am curious: what IRF reporter value has been reported for OCCN1CCN(CC/C=C2/c3ccccc3Sc3ccc(Cl)cc32)CC1 ? 2.43

I am curious: what IRF reporter value has been reported for CCc1ccc(OCCSc2nc3ccccc3n2CCO)cc1 ? 1.13

I am curious: what IRF reporter value has been reported for O=C(Nc1cc2c(cc1Cl)OCCO2)c1cc(Cl)ccc1O ? 1.45

I am curious: what IRF reporter value has been reported for COC(=O)C1C(O)CCC2CN3CCc4c([nH]c5ccccc45)C3CC21.Cl (stereo unspecified) ? 1.23

I am curious: what IRF reporter value has been reported for Cc1c(F)cc(C(=O)NC2CC2)cc1-c1ccc(C(=O)NCC(C)(C)C)cn1 ? 0.932

I am curious: what IRF reporter value has been reported for CC(=O)NO ? 0.977

I am curious: what IRF reporter value has been reported for Cc1ccc(C)c(NC(=O)CCN2CCN(C=O)CC2)c1 ? 1.33

I am curious: what IRF reporter value has been reported for N#Cc1nc(-c2ccc(COc3ccccc3)o2)oc1N1CCCCC1 ? 1.3

###

Give measured NF-kB reporter for each item. Keep answers brief.
tested on: RAW-Dual (murine macrophage reporter line); experiment: NF-kB reporter (SEAP) activity fold change vs agonist alone; higher = enhanced NF-kB activity; settings: modulator concentration 10 µM; agonist: MPLA […]

I am curious: what NF-kB reporter value has been reported for CC(C)(C)C1CCc2c(sc(NC(=O)c3cccs3)c2C(=O)N2CCCC2)C1 (stereo not given) ? 0.993

I am curious: what NF-kB reporter value has been reported for O=C(Nc1ccccc1)NC1CCS(=O)(=O)C1 (stereo not given) ? 0.998

I am curious: what NF-kB reporter value has been reported for CCCOc1ccc(CCC(=O)O)cc1 ? 0.985

I am curious: what NF-kB reporter value has been reported for CCOC(=O)c1cnn(CCOc2ccccc2)c1N ? 1.02

I am curious: what NF-kB reporter value has been reported for CS(=O)(=O)N(Cc1ccccc1)c1ccc(C(=O)NCCSCc2ccc(Cl)cc2)cc1 ? 1.01
